Data credit: BindingDB's records for doi:10.7270/Q2KH0KWR

Parameter IC50: see the listing below.
- systemTested: Tyrosine-protein phosphatase non-receptor type 5 (Homo sapiens, UniProt P54829)
- assaySummary: STEP phosphatase inhibitor potency, dose response, orthogonal assay for STEP inhibitor project, biochemical, colorimetric absorbance (AID 624207)

A selection of reference data follows.
                             moleculesmiles   result
0    CC(=NNC(=S)N1CC2CCC(CC2)C1)c1cccc(C)n1  > 80 µM
1      Cc1ccc(S(=O)(=O)Cc2ccc(C(=O)O)o2)cc1  > 80 µM
2  O=C(N/N=C/c1ccc(Cl)c([N+](=O)[O-])c1)c1ccc2c(c1)OCCO2  15.7 µM
3  COc1cccc(N2[C@@H](CC(=O)O)c3ccc(/C=C/C(=O)O)cc3S2(=O)=O)c1  > 80 µM
4  Cc1c(CCC(=O)O)c(=O)oc2c(C)c(OCc3cc4c(cc3Cl)OCO4)ccc12  > 80 µM

Field IC50 (Tyrosine-protein phosphatase non-receptor type 5 (Homo sapiens, UniProt P54829)), entry "COc1ccc(CN=Nc2nc(O)c(CC(=O)O)s2)cc1OCc1ccc(Cl)cc1Cl" : 13.6 µM

Field IC50 (Tyrosine-protein phosphatase non-receptor type 5 (Homo sapiens, UniProt P54829)), entry "CCOc1cc(CN=Nc2nc(O)c(CC(=O)O)s2)ccc1OCc1ccc(Cl)cc1Cl" : > 80 µM

Field IC50 (Tyrosine-protein phosphatase non-receptor type 5 (Homo sapiens, UniProt P54829)), entry "COc1ccc(OC)c(-n2c(O)c3o[nH]c(-c4ccccc4Cl)c-3c2=O)c1" : > 80 µM

---

Parameter IC50: see the listing below.
- systemTested: Tyrosine-protein phosphatase non-receptor type 5 (Homo sapiens)
- Sequence (P54829 whole entry): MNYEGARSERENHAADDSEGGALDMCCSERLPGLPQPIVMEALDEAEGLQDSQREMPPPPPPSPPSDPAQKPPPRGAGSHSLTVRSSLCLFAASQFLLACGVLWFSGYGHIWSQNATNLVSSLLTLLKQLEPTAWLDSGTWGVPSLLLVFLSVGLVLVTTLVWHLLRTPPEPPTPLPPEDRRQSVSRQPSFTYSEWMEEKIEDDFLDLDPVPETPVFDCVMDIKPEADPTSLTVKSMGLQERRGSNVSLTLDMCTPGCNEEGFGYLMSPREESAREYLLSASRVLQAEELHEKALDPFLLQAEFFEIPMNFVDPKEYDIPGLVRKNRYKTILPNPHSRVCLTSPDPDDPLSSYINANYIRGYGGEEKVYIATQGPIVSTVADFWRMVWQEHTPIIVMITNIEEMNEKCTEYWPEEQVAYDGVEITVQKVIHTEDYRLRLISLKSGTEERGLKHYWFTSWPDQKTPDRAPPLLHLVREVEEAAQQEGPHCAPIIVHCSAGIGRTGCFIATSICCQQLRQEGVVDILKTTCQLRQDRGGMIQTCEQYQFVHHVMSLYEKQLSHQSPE
- assaySummary: STEP phosphatase inhibitor potency, dose response, orthogonal assay for STEP inhibitor project, biochemical, colorimetric absorbance (AID 624207)
Give the value, in units of µM, as a plain number.

A selection of reference data follows.
                                   compound                              systemtested  quantitativeresult
0  O=C(Nc1cc([N+](=O)[O-])ccc1O)c1cccc(C(=O)Nc2cc([N+](=O)[O-])ccc2O)c1  Tyrosine-protein phosphatase non-receptor type 5 (Homo sapiens)                7.05
1  O=C(N/N=C/c1ccc(Br)s1)c1cccc([N+](=O)[O-])c1  Tyrosine-protein phosphatase non-receptor type 5 (Homo sapiens)                14.9
2           O=C(NN=Cc1ccccc1O)NN=Cc1ccccc1O  Tyrosine-protein phosphatase non-receptor type 5 (Homo sapiens)                32.5
3        CN1CCN(C(=S)C(=O)Nc2ccc(Br)cc2)CC1  Tyrosine-protein phosphatase non-receptor type 5 (Homo sapiens)                12.6
4  COc1cc(Cl)cc(C=NNC(=O)c2ccc3c(c2)OCO3)c1O  Tyrosine-protein phosphatase non-receptor type 5 (Homo sapiens)                23.3

In plain terms, CC1=C(C(=O)OC(C)C)C(c2ccc(Cl)cc2)n2c(s/c(=C\c3ccc(OCC(=O)O)cc3)c2=O)=N1 (stereo unspecified) has a documented IC50 of 5.83

In plain terms, "CCN(CC)P(=O)(NC(=O)C(Cl)(Cl)Cl)N(CC)CC" has a documented IC50 of 77.5

In plain terms, "COc1ccc(NC(S)=NCCN2CCC(C)CC2)cc1Cl" has a documented IC50 of 18.2

In plain terms, S=C1N=C2C(=C3SCCS3)CCCC2C(c2ccccc2)N1 (stereo unspecified) has a documented IC50 of 72.8

In plain terms, "Cc1c(CCC(=O)O)c(=O)oc2c(C)c(OCc3ccccc3Cl)ccc12" has a documented IC50 of 6.4

In plain terms, "COc1cc(C(=S)N2CCCCC2)ccc1O" has a documented IC50 of 15.5

In plain terms, "Cc1cccc(Nc2nn3c(=O)c4ccccc4nc3s2)c1" has a documented IC50 of 8.34
